system: HCT-15 colon; experiment: NCI tumour cell line growth inhibition, 48 h
quantity.kind: TGI

Entry O=P(O)(Cc1ccccc1)c1ccccc1-c1ccccc1 , TGI reported as > 100 µM

----------
system: SR leukemia; test: NCI tumour cell line growth inhibition, 48 h
quantity.kind: TGI

Some entries whose results are on file:
{"columns": ["compound", "TGI"],
 "data": [
  ["CCOC(=O)C(=Cc1cccc(Cl)c1)C(=O)OCC", "> 100 µM"],
  ["Cc1ccc(/C=C/c2c(C(=O)/C=C/c3ccc(C(F)(F)F)cc3)c(C)nc3ccccc23)cc1", "4.97 µM"]
]}

The compound listed as COc1cc(CNCCCN2C(=O)c3ccc4c5c(ccc(c35)C2=O)C(=O)N(CCCNCc2cc(OC)c(OC)c(OC)c2)C4=O)cc(OC)c1OC shows TGI equal to 1.62 µM

Kindly note the recorded TGI for CCc1cccc(C)c1NC(=O)C(=O)Cc1nc2ccccc2o1 , which is > 100 µM

All figures here come from PubChem BioAssay (NCI).
